Measured IC50 values are reported for all entries that follow.
System: IL-4
Experiment: Measurement of IL-4 Levels in Human T Cells (IL-4 Assay)
Format: cell-based
Conditions: Human T cells (HUT 78), phorbol 12-myristate 13-acetate and anti-CD3, 32 hours, ELISA; read-out: IL-4 Inhibition IC50
Method: Measurement of IL-5 and IL-4 Levels in Human T Cells (IL-4 and IL-5 Assays) Human T cells (HUT 78) were cultured to 1×10^6/mL in RPMI 1640 medium containing 10% fetal calf serum, 100 U/mL penicillin and 100 μg/mL streptomycin. Cultures were then centrifuged, to pellet the cells, and cells resuspended in fresh medium to the same density. […] Inhibition was calculated relative to cytokine levels produced from control stimulated cells not treated with compound.
Lab book: enter the figure in nM, no units written.

Req: Recorded IC50 of O=C(Nc1ccc(Cl)cc1)c1ccc(-n2nc(C(F)(F)F)cc2C(F)(F)F)cc1 , please.
Resp: 150

Req: Entry Cc1nnsc1C(=O)Nc1ccc(-n2nc(C(F)(F)F)cc2C(F)(F)F)cc1 has what IC50?
Resp: 50

---

System: Human peripheral blood mononuclear cells
Assay: Human Concanavalin-A Proliferation Assay (Con HU Assay)
Assay type: cell-based
Conditions: Homo sapiens, PBMC, concanavalin-A stimulated human PBMC, tritiated thymidine
quantity: pIC50
Reminder that pIC50 means the negative base-10 logarithm of the concentration expressed in mol/L.

Below are worked cases with known answers.
O=C(Nc1ccc(-n2nc(C(F)(F)F)cc2-c2cccnc2)cc1)c1ccccc1F	6.47
CSc1cc(C(F)(F)F)nn1-c1ccc(NC(=O)c2ccccc2F)cc1	7.49
O=C(Nc1ccc(-n2nc(C(F)(F)F)cc2C(F)(F)F)cc1)c1ccncc1F	7.38

Req: Query (compound): O=C(Nc1ccc(-n2nc(C(F)(F)F)cc2C(F)(F)F)cc1)c1cnns1 ; field requested: pIC50
Resp: 6.28

---

quantity: melting point

FC(F)(F)c1cc(C(F)(F)F)n(-c2ccc(NCc3ccccc3Cl)cc2)n1	240 °C

Req: I am curious: what melting point value has been reported for COC(=O)c1cccc(C(=O)Nc2ccc(-n3nc(C(F)(F)F)cc3C(F)(F)F)cc2)c1 ?
Resp: 174 to 175 °C

Req: Data request, read-out melting point, for N#Cc1cc(C(F)(F)F)nn1-c1ccc(NC(=O)c2ccncc2F)cc1
Resp: 161 to 162 °C

Req: Name the recorded melting point for O=C(Nc1ccc(-n2nc(C(F)(F)F)cc2C(F)(F)F)cc1)c1ccc(F)cc1F .
Resp: 126 to 128 °C

Req: What measured melting point goes with O=C(Nc1ccc(-n2nc(C(F)(F)F)cc2C(F)(F)F)cc1)c1ccoc1 ?
Resp: 206 to 207 °C

Req: Could you share which melting point value was measured for Cc1ccc(NC(=O)Nc2ccc(-n3nc(C(F)(F)F)cc3C(F)(F)F)cc2)c([N+](=O)[O-])c1 ?
Resp: 213 to 214 °C

Req: Item CS(=O)(=O)c1csc(C(=O)Nc2ccc(-n3nc(C(F)(F)F)cc3C(F)(F)F)cc2)c1Cl has what recorded melting point?
Resp: 210 to 212 °C

Req: I have this molecule here, O=C(Nc1ccc(-n2nc(C(F)(F)F)cc2C(F)(F)F)cc1)c1c(F)c(F)cc(F)c1F , and I need its recorded melting point.
Resp: 235 to 237 °C

Req: Which melting point is listed for Cc1noc(C)c1C(=O)Nc1ccc(-n2nc(C(F)(F)F)cc2C(F)(F)F)cc1C(F)(F)F ?
Resp: 145 to 146 °C

Req: What value of measured melting point is listed for O=C(Nc1ccc(-n2nc(C(F)(F)F)cc2C(F)(F)F)cc1)Nc1ccc(Cl)c([N+](=O)[O-])c1 ?
Resp: 207 to 209 °C

Req: For the molecule shown here, CN(C)c1cccc(C(=O)Nc2ccc(-n3nc(C(F)(F)F)cc3C(F)(F)F)cc2)c1 , give the reported melting point.
Resp: 180 to 181 °C

---

Tested on: Human peripheral blood mononuclear cells
Assay: Human Concanavalin-A Proliferation Assay (Con HU Assay)
Assay type: cell-based
Details: Homo sapiens, PBMC, 72 h, concentration 100 μm (in parentheses in the cell); concanavalin-A stimulated human PBMC, 3 days; read-out: % Inhibition of proliferation (at concentrations of 1,10, or 100 μm)
quantity: inhibition at 100 µM

CCCCCCOc1ccc(C(=O)Nc2ccc(-n3nc(C(F)(F)F)cc3C(F)(F)F)cc2)cc1	83%
CNC(=O)c1ccccc1C(=O)Nc1ccc(-n2nc(C(F)(F)F)cc2C(F)(F)F)cc1	71%
[N-]=[N+]=Nc1ccc(C(=O)Nc2ccc(-n3nc(C(F)(F)F)cc3C(F)(F)F)cc2)cc1	100%

Below: the item to evaluate.
Req: Entry under review: Cc1ccc(C(=O)Nc2ccc(-n3nc(C(F)(F)F)cc3C(F)(F)F)cc2)c(Cl)n1 . Reported inhibition at 100 µM?
Resp: 99%

---

System: Human peripheral blood mononuclear cells
Assay: Human Concanavalin-A Proliferation Assay (Con HU Assay)
Format: cell-based
Details: Homo sapiens, PBMC, 72 h, concentration 10 μm (in parentheses in the cell); concanavalin-A stimulated human PBMC, 3 days; read-out: % Inhibition of proliferation (at concentrations of 1,10, or 100 μm)
quantity: inhibition at 10 µM

See these solved cases before continuing.
CS(=O)(=O)c1ccc(C(=O)Nc2ccc(-n3nc(C(F)(F)F)cc3C(F)(F)F)cc2)c(Cl)c1	100%
Cn1cccc1C(=O)Nc1ccc(-n2nc(C(F)(F)F)cc2C(F)(F)F)cc1	100%
O=C(Nc1ccc(-n2nc(C(F)(F)F)cc2C(F)(F)F)cc1)c1c(F)cccc1C(F)(F)F	100%

Req: Request the reported inhibition at 10 µM associated with O=C(Nc1ccc(-n2nc(C(F)(F)F)cc2C(F)(F)F)cc1)c1c(F)c(F)cc(F)c1F
Resp: 99%

Req: Query (compound): COc1cc(-n2nc(C(F)(F)F)cc2C(F)(F)F)ccc1NC(=O)c1snnc1C ; field requested: inhibition at 10 µM
Resp: 16%

---

quantity: melting point

O=C(Nc1ccc(-n2nc(C(F)(F)F)cc2C(F)(F)F)cc1)c1ccccc1Cl	155 to 157 °C
O=C(Nc1cccc(-n2nc(C(F)(F)F)cc2C(F)(F)F)c1)c1cc([N+](=O)[O-])ccc1Cl	147 to 152 °C
O=C(Nc1ccc(-n2nc(C(F)(F)F)cc2C(F)(F)F)cc1)Nc1ccc(Cl)cc1[N+](=O)[O-]	225 to 227 °C
O=C(Nc1ccc(-n2nc(C(F)(F)F)cc2OC(F)F)cc1)c1ccccc1F	130 to 131 °C
O=C(Nc1ccc(-n2nc(C(F)(F)F)cc2C(F)(F)F)cc1)c1cccc(I)c1	192 to 193 °C
CC1(C(=O)Nc2ccc(-n3nc(C(F)(F)F)cc3C(F)(F)F)cc2)C=CCCC1 (stereo not drawn)	108 to 110 °C

Req: GET /values?readout=melting point&item= COc1cncc(Cl)c1C(=O)Nc1ccc(-n2nc(C(F)(F)F)cc2C(F)(F)F)cc1
Resp: 187 to 188 °C

Req: Look up melting point: CCCCCc1ccc(C(=O)Nc2ccc(-n3nc(C(F)(F)F)cc3C(F)(F)F)cc2)c(=O)o1
Resp: 140 to 141 °C

---

Test system: Human peripheral blood mononuclear cells
Assay: Human Concanavalin-A Proliferation Assay (Con HU Assay)
Type: cell-based
Conditions: Homo sapiens, PBMC, 72 h, concentration 10 μm (in parentheses in the cell); concanavalin-A stimulated human PBMC, 3 days; read-out: % Inhibition of proliferation (at concentrations of 1,10, or 100 μm)
Attribute: inhibition at 10 µM
State just the number; it will be interpreted in %.

Req: Query inhibition at 10 µM on Human peripheral blood mononuclear cells for O=C(Nc1ccc(-n2nc(C(F)(F)F)cc2C(F)(F)F)cc1)c1cccc(CO)c1 [Example 51]
Resp: 100

Req: Record Cn1ncc(C(=O)Nc2ccc(-n3nc(C(F)(F)F)cc3C(F)(F)F)cc2)c1[N+](=O)[O-] [Example 83] : what is its inhibition at 10 µM with Human peripheral blood mononuclear cells?
Resp: 99

Req: Request body: readout inhibition at 10 µM, system Human peripheral blood mononuclear cells, query Fc1ccc(/N=C/c2ccc(-n3nc(C(F)(F)F)cc3C(F)(F)F)cc2)c(F)c1 [Example 97] . Return the value.
Resp: 20

Req: Lab note: need inhibition at 10 µM with Human peripheral blood mononuclear cells for entry COc1ccc(Br)c(C(=O)Nc2ccc(-n3nc(C(F)(F)F)cc3C(F)(F)F)cc2)c1 [Example 219] , please look it up.
Resp: 100

Req: Human peripheral blood mononuclear cells / inhibition at 10 µM / CC(=O)N1CCC(C(=O)Nc2ccc(-n3nc(C(F)(F)F)cc3C(F)(F)F)cc2)CC1 [Example 174] : value?
Resp: 99

Req: Param readout = inhibition at 10 µM; param system = Human peripheral blood mononuclear cells; param query = O=C(Nc1ccc(-n2nc(C(F)(F)F)cc2C(F)(F)F)cc1)c1ccncc1F [Example 264] ; response: value
Resp: 100

Req: Kindly state the measured inhibition at 10 µM obtained for Nc1cccc(C(=O)Nc2ccc(-n3nc(C(F)(F)F)cc3C(F)(F)F)cc2)c1 [Example 58] with Human peripheral blood mononuclear cells.
Resp: 97

Req: Reported inhibition at 10 µM for Human peripheral blood mononuclear cells, given O=C(Nc1ccc(-n2nc(C(F)(F)F)cc2C(F)(F)F)cc1)c1cccnc1F [Example 164] ?
Resp: 99

Req: Test system Human peripheral blood mononuclear cells; read-out inhibition at 10 µM; what value for N#Cc1ccccc1NC(=O)c1ccc(-n2nc(C(F)(F)F)cc2C(F)(F)F)cc1 [Example 188] ?
Resp: 87
